# experiment_description: protein stability index of a GFP-peptide fusion (GPS, HEK-293T) (PSI 1-6); higher = more stable;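 also: 24-mer peptide tiles fused after GFP, lentivirally expressed, FACS-sorted into six equal bins by GFP/DsRed ratio, decoded by Illumina sequencing, PSI is the read-weighted mean bin number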
# experimental_setup: treatment: DMSO; c terminus: a fixed tail appended
Record satisfied whenever protein stability index is at 4 or higher; record not satisfied when lower.

For this sequence, is measured protein stability index 4 or higher? TDQLEFTVEPRLLVADLLYWKDTR [RTN2] not satisfied

Textbook exercise: given the entry KILEVVGRYSVHNAGISFSVKKQG [MLH1] , state whether its protein stability index is greater than or equal to 4. not satisfied

Check if protein stability index >= 4 (inclusive). Item: HGEEQRITIEPGTSYRLQGLKPNS [PTPRD] satisfied

Is the recorded value of protein stability index equal to or greater than 4 for this sequence? ENERVRGLETGDWGGAPKEGSIWR [ZSWIM9] satisfied

Entry AVAHKTPRCPGSVNEKLPQREGTG [SMOC2] : is its protein stability index no less than 4? satisfied

Is protein stability index at least 4? Consider MNAVGSPEGQELQKLGSGAWDNPA [PKD2L1] satisfied

Could you verify whether the entry LRFFKEKDGKAFHPTYEEKLKLVA [ACBD3] shows protein stability index of no less than 4? not satisfied

---

# experiment_description: protein stability index of a GFP-peptide fusion (GPS, HEK-293T) (PSI 1-6); higher = more stable
# experimental_setup: treatment: MLN4924 1 uM, 8 h; c terminus: a fixed tail appended
For each record, write down the corresponding protein stability index.
Answer using only a numeral; do not append any unit.

What does the record list as protein stability index for AVAHKTPRCPGSVNEKLPQREGTG [SMOC2] ? 5.33

What does the record list as protein stability index for KSQSLRSVRRSESWARPRPDEERP [RASAL3] ? 4.99

What protein stability index value was documented for this sequence, MPRQISRQSSVTESTLYPNPYHQP [TPRG1] ? 3.7

Entry under review: KDFLTGMCLFLQSLRQKQPERLCS [GMPPB] . Reported protein stability index? 2.23

Recorded protein stability index of KAMAKLSKLASNGTPMGTFAPLWE [FCHO1] , please. 2.48

So what does the record say about protein stability index for AKEMSVPFYTSRIDEVLLHQDVDL [GFOD1] ? 3.88

Entry QRKVDGIQKAYDELRLQSEAFKKH [CCDC89] has what protein stability index? 4.21

What value of measured protein stability index is listed for KILEVVGRYSVHNAGISFSVKKQG [MLH1] ? 1.91

Field request: protein stability index | item: LLDLDPEVECLKANTNEVLWAVVA [GOLPH3] 2.22

Quick one: protein stability index for QKKDCVPLMKPHRPWADTCSSSGK [HESX1] ? 3.67

Entry under review: VAWCYYSVSLRKAERLRAELLDLK [MYORG] . Reported protein stability index? 2.15

Reported protein stability index, sequence IEKFIREPSLKATMGLAGRARVKE [ALG2] : ____ 3.62

What does the data say about its protein stability index? Entry: VGLGTCSMFSRVGGIIAPFIPSLK [SLC22A15] 2.33

Reported protein stability index, sequence DTVFRFDPRYNKWMQVASLNEKRT [KLHL13] : ____ 3.14

If you can, please state the reported protein stability index value of AALPLAAEETANLPPSPPPSPASE [MAP2] . 5.09

Please give the measured protein stability index for this sequence: SEPYKLLPGAVATIVKPLSAIPQP [HNF4A] 3.59

Can you look up the measured protein stability index of TWLPSRAEWLLAVRSIQPEEKERI [AASDHPPT] for me? 3.29

GET /values?readout=protein stability index&item= NKTWREQYLRLPDAPEQRLRVMTT [ELOA2] 3.19

Name the recorded protein stability index for LWEAEDRQNVPRKVPNHYIAIPEW [CPXM2] . 3.02

Sample TIVTDVFQGSMRIFTKKLPHPDLP [USP39] — what was its protein stability index? 2.38

Endpoint output: protein stability index of VNEMCPNITRIYNIGKSHQGLKLY [CPXM2] . Value? 2.57

I'd like to know its protein stability index. The sequence in question is AQHSLMDGYCMFNHVAVAARYAQQ [HDAC6] 1.92

Request the reported protein stability index associated with MASCPDSDNSWVLAGSESLPVETL [PBXIP1] 4.41

Dear colleague, I am looking for the recorded protein stability index of the following sequence: ILENTSKVPAPKDVLAHQVPNAKK [NOP53] 4.43

What measured protein stability index goes with DFLAVLSDYPSPDISPPIFRRGEK [SLA] ? 2.75

Find the recorded protein stability index belonging to GGIIAPFIPSLKYVQWSLPFIVFG [SLC22A15] and report it. 2.86

Any idea what protein stability index was measured for DCSFPGLPRHQDQPHHQPPNRAGA [TRAF3IP2] ? 5.03

Any idea what its protein stability index is? The sequence is LSPDIMKDAYVQKLVKVCNGHDCW [TENT5D] 2.35

Returns the measured protein stability index for the input sequence. Input: EEITEESLEESVGKPLYLIFRNLC [INTS3] 2.88

Data request, read-out protein stability index, for KHSTIFDVGENLTVPDEFTVEERQ [SLC25A25] 4.98

Name the reported protein stability index value associated with the sequence EVCYEDLGCFSDTEPWGGTAIRPL [PNLIPRP1] 3.54

Request the reported protein stability index associated with GDIIRLEHKETSRNLHSHYHEAPM [POMT2] 3.57

protein stability index lookup needed for KNWWVRGILTLAMIAFFFIIIYLG [CDS2] , thanks. 2.85

Given the entry HWTSAPLTEASAHSHPPEIKDQGG [MAP2] , report its measured protein stability index. 5.18

If you can, please state the reported protein stability index value of YRLGYFDDALEDFKKVLDLNPGFQ [TTC32] . 2.41

# query: protein stability index of entry ALVGCVISDNPERYSTNLSNHVDD [EDNRA] 4.16

Fill blank: measured protein stability index of the sequence HADILAAVETRLSLLNMTFMKYVD [FBXO28] is ____. 2.75

Entry RAHAEIRKMSLLKFLAKVNGSDPR [MAGEA10] : reported protein stability index = ? 2.57

// returns reported protein stability index for input TLKEAYVQKLVKVCTDTDRWSLIS [TENT5C] 2.4

Given the entry NRNQRIVQLIQDTRIHILPSMNPD [CPN1] , report its measured protein stability index. 3

# input sequence: DSQAPAGSLDLVPGGLTLEEHSLE [SPDEF] ; wanted: its protein stability index 5.45

Item under review: DATPPVSPINMEDQERIKVERKRL [JUNB] . Reported protein stability index? 5.36

So what's the measured protein stability index for this one? SHAWEVALGGLQSWRVGVVRVRQD [TRIM35] 2.35

Fill in: protein stability index of SVVTTARMQVLKRQVQSLMVHQRK [SMARCE1] is ___ 2.94

Which protein stability index is reported for this sequence? FVLDENDNAPAVLHPRPDWEHSAP [PCDHGC5] 3.62

I would be grateful if you could share the reported protein stability index for VLPEDRILREELQKQRLREILEQQ [ZNF277] . 4.21

May I ask what protein stability index has been recorded for NILLDKHRMVVKIGDFGISKILSS [NEK8] ? 2.09

Can you share its protein stability index? I mean this sequence: STHHGCEHICVNNGNSYICKCSEG [MATN2] 4.94

Form field: reported protein stability index of LLGPATGCLLDDGLEGLFEDIDTS [SERTAD1] 4.32
